system tested: T1, hNPR1-mFc:hANP or hNPR1-hFc:hANP complex (human, UniProt P01160 124-151)
T1 construct: also called human NPR1 complexed to ANP
measurement description: SPR, mAb captured, 25C
Kindly state koff for each of the entries shown.
The response must be a number in s⁻¹ with no trailing unit.

Enquiry: koff lookup needed for mAb25502 (antibody, human IgG4, V domains shown) VH: QLQLQESGPGLVKPSETLSLTCTVSGGSISSSSYYWGWIRQPPGKGLEWIGSIYYSGSPYYIPSLKSRVTISVDTSKNQFSLKLSSVTAADTAMYYCARQGRGIARAGPFDYWGQGTLVTVSS VL: DIQMTQSPSSLSASVGDRVTITCRASQGISNYLAWYQEKPGKVPKLLIYAASTLQSGVPSRFSGSGSGTDFTLTITSLQSEDVATYYCQKYNSAPPWTFGQGTKVEIK , thanks.
Return: 0.000253

Enquiry: Would you mind telling me what koff value was observed for mAb25479 (antibody, human IgG4, V domains shown) VH: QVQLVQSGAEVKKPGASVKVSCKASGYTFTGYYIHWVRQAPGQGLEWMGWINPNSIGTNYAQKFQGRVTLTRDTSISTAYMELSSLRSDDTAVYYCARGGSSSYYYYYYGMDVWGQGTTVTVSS VL: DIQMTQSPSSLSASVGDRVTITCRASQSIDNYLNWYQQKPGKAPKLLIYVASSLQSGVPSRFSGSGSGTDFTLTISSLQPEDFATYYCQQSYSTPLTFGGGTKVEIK ?
Return: 0.000109

Enquiry: # lookup: koff of mAb22805 (antibody, human IgG4, V domains shown) VH: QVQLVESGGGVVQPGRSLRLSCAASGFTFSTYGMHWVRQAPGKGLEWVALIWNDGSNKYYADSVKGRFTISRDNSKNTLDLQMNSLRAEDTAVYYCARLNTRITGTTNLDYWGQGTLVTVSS VL: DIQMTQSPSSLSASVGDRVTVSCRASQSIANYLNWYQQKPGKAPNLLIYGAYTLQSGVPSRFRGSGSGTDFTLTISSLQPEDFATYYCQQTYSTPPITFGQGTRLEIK
Return: 0.000141
